viability at 28.5 h, 10 µM: recorded values
test.protocol: in vitro
run.conditions: human, hela cells, % viability
Number only, in %; omit the unit.

{"compound": "CCN(CC)S(=O)(=O)c1ccc(CNC(=O)Cc2ccc(Cl)cc2)cc1 [CBK306188]", "viability at 28.5 h, 10 µM / %": 105}
{"compound": "O=C1Nc2cc(Cl)ccc2C(=O)N2CCN(C(=O)C3CCCCC3)C[C@H]12 [CBK289586]", "viability at 28.5 h, 10 µM / %": 87.1}
{"compound": "CN(C)C(=O)CN1CCC2(C/C=C/COc3ccccc3C(=O)NC[C@@H](Cc3ccccc3)NC2=O)CC1 [CBK292185]", "viability at 28.5 h, 10 µM / %": 107}

Let us examine a further case.
Give the measured viability at 28.5 h, 10 µM for COc1ccc(C(=O)Nc2nc3c(C)c(C)ccc3s2)cc1 [CBK291210]
107

----------
test.protocol: in vitro
run.conditions: human, hela cells, % viability
observation.type: viability at 28.5 h, 10 µM (%)
Number only, in %; omit the unit.

{"compound": "O=C(O)c1cccc2cccc(-c3cccc4cccc(C(=O)O)c34)c12", "viability at 28.5 h, 10 µM (%)": 109}
{"compound": "COc1cc(C#N)ccc1Oc1ccc([N+](=O)[O-])cn1", "viability at 28.5 h, 10 µM (%)": 108}
{"compound": "Cc1cc(C(=O)NCCC(=O)O)c2ccccc2n1", "viability at 28.5 h, 10 µM (%)": 86}
{"compound": "Cc1ccc(C(F)(F)F)cc1NCc1csc(C2CCCO2)n1 (centres unmarked)", "viability at 28.5 h, 10 µM (%)": 92.8}
{"compound": "O=C(O)Cc1csc(SCc2cc(F)cc3c2OC(c2ccccc2)OC3)n1 (centres unmarked)", "viability at 28.5 h, 10 µM (%)": 107}
{"compound": "c1coc(-c2ccc3c(c2)COC2(CCN(CCc4ccc5c(c4)OCO5)CC2)O3)c1", "viability at 28.5 h, 10 µM (%)": 90.4}

Give the measured viability at 28.5 h, 10 µM for Cc1cccc(-c2ncc(NC(=O)CCOc3ccccc3)nc2-c2ccc(N)cc2)c1
113

Give the measured viability at 28.5 h, 10 µM for Cc1ccc(C(=O)n2c(=S)nc3ccccn32)cc1
91.9

Give the measured viability at 28.5 h, 10 µM for COc1ccc2[nH]c3c(c2c1)CCN(C=O)C31CCN(Cc2cccc(Cl)c2)C1 (centres unmarked)
97.3

----------
test.protocol: in vitro
run.conditions: human, hela cells, % viability
observation.type: viability at 28.5 h, 10 µM
Put down the number, then write its unit next to it.

# example entries with known answers
{"molecule": "O=C(Nc1ccccc1C(=O)O)c1cccc(S(=O)(=O)NCc2ccccc2)c1", "result": "98.1%"}
{"molecule": "Cc1cc(S(=O)(=O)Nc2cc(C3CC3)nn2C)c(C)cc1Cl", "result": "111%"}
{"molecule": "CCN(CC)C(=O)C1CCCN(C(=O)Nc2cccc(OC)c2)C1 (centres unmarked)", "result": "92.9%"}
{"molecule": "O=C(NCCCN1CCCCC1)/C(=N\\O)c1ccccc1", "result": "97.7%"}
{"molecule": "COC(=O)c1ccsc1NS(=O)(=O)c1cc(Cl)sc1Cl", "result": "88.2%"}

Give the measured viability at 28.5 h, 10 µM for Cc1cc(Cn2ccc(C(F)(F)F)n2)c(C)c(-c2c(C#N)c(N)nc3c2CCCCC3)c1
104%

Give the measured viability at 28.5 h, 10 µM for CC(C)CC(=O)N1C[C@H]2CCCN(Cc3ccccn3)[C@H]2C1
86.6%
